- test: Cytotoxicity against human HCT116 cells at 10 ug/mL by MTT assay
- Type: cell-based, HCT-116
- stated.conditions: read-out: INH
Given measured cytotoxicity at 10 ug/mL, output rule met if it is greater than or equal to 8% and rule not met if not.

>  <compound>
O=C1CSC(c2ccc(Br)cc2)N1c1ccccc1 (stereo not drawn)

>  <class>
rule not met

$$$$
>  <compound>
O=C1CSC(c2ccc(F)cc2)N1c1ccccc1 (stereo not drawn)

>  <class>
rule met

$$$$
>  <compound>
O=C1CSC(c2ccc(F)cc2)N1c1ccc(Cl)cc1 (stereo not drawn)

>  <class>
rule met

$$$$
>  <compound>
COc1ccc(N2C(=O)CSC2c2ccccc2)cc1 (stereo not drawn)

>  <class>
rule not met

$$$$
>  <compound>
O=C1CSC(c2ccc(Cl)cc2)N1c1ccc(Cl)cc1 (stereo not drawn)

>  <class>
rule not met

$$$$
>  <compound>
O=C1CSC(c2ccc(O)cc2)N1c1ccc(Cl)cc1 (stereo not drawn)

>  <class>
rule met

$$$$
>  <compound>
O=C1CSC(c2ccccc2)N1c1ccccc1 (stereo not drawn)

>  <class>
rule not met

$$$$

====

- test: Cytotoxicity against human MCF7 cells at 10 ug/mL by MTT assay
- Assay type: cell-based
- stated.conditions: read-out: INH
Class 1: cytotoxicity at 10 ug/mL at least 20%. Class 0: cytotoxicity at 10 ug/mL below 20%.

>  <compound>
COc1ccc(C2SCC(=O)N2c2ccccc2)cc1 (configuration not stated)

>  <class>
0

$$$$
>  <compound>
Cc1ccc(C2SCC(=O)N2c2ccccc2)cc1 (configuration not stated)

>  <class>
0

$$$$
>  <compound>
O=C1CSC(c2ccc(F)cc2)N1c1ccc(Cl)cc1 (configuration not stated)

>  <class>
1

$$$$
>  <compound>
O=C1CSC(c2ccc(Cl)cc2)N1c1ccc(Cl)cc1 (configuration not stated)

>  <class>
0

$$$$
>  <compound>
Cc1ccc(N2C(=O)CSC2c2ccccc2)cc1 (configuration not stated)

>  <class>
0

$$$$
>  <compound>
COc1ccc(N2C(=O)CSC2c2ccccc2)cc1 (configuration not stated)

>  <class>
0

$$$$
>  <compound>
O=C1CSC(c2ccc([N+](=O)[O-])cc2)N1c1ccccc1 (configuration not stated)

>  <class>
1

$$$$
>  <compound>
O=C1CSC(c2ccccc2)N1c1ccc(F)cc1 (configuration not stated)

>  <class>
0

$$$$
>  <compound>
O=C1CSC(c2ccc(Cl)cc2)N1c1ccc(F)cc1 (configuration not stated)

>  <class>
0

$$$$
>  <compound>
Cc1ccc(N2C(=O)CSC2c2ccc([N+](=O)[O-])cc2)cc1 (configuration not stated)

>  <class>
1

$$$$
>  <compound>
COc1ccc(C2SCC(=O)N2c2ccc(Cl)cc2)cc1 (configuration not stated)

>  <class>
0

$$$$

====

// growth inhibition (GI) lookup, one value per entry
- System: Mycobacterium bovis BCG str. ATCC 35743
- test: Antitubercular activity against dormant Mycobacterium bovis BCG ATCC 35743 assessed as growth inhibition at 3 ug/mL by NR assay
- Type: functional

>  <compound>
O=C1CSC(c2ccc(F)cc2)N1c1ccc(Cl)cc1 (stereo not given)

>  <growth inhibition (GI), %>
-3.2

$$$$
>  <compound>
O=C1CSC(c2ccc(Cl)cc2)N1c1ccccc1 (stereo not given)

>  <growth inhibition (GI), %>
-0.5

$$$$
>  <compound>
O=C1CSC(c2ccccc2)N1c1ccc(Br)cc1 (stereo not given)

>  <growth inhibition (GI), %>
-14

$$$$
>  <compound>
O=C1CSC(c2ccccc2)N1c1ccc(Cl)cc1 (stereo not given)

>  <growth inhibition (GI), %>
1.3

$$$$
>  <compound>
Cc1ccc(C2SCC(=O)N2c2ccc(C)cc2)cc1 (stereo not given)

>  <growth inhibition (GI), %>
-12.5

$$$$
>  <compound>
O=C1CSC(c2ccccc2)N1c1ccc(F)cc1 (stereo not given)

>  <growth inhibition (GI), %>
27.7

$$$$
>  <compound>
O=C1CSC(c2ccc(Br)cc2)N1c1ccccc1 (stereo not given)

>  <growth inhibition (GI), %>
48.7

$$$$
>  <compound>
O=C1CSC(c2ccc(O)cc2)N1c1ccc(Cl)cc1 (stereo not given)

>  <growth inhibition (GI), %>
6

$$$$
>  <compound>
COc1ccc(N2C(=O)CSC2c2ccccc2)cc1 (stereo not given)

>  <growth inhibition (GI), %>
-0.1

$$$$
>  <compound>
O=C1CSC(c2ccc(Cl)cc2)N1c1ccc(Cl)cc1 (stereo not given)

>  <growth inhibition (GI), %>
-20.2

$$$$
>  <compound>
O=C1CSC(c2ccc(F)cc2)N1c1ccccc1 (stereo not given)

>  <growth inhibition (GI), %>
-10.7

$$$$
>  <compound>
O=C1CSC(c2ccccc2)N1c1ccccc1 (stereo not given)

>  <growth inhibition (GI), %>
14.2

$$$$
>  <compound>
COc1ccc(C2SCC(=O)N2c2ccccc2)cc1 (stereo not given)

>  <growth inhibition (GI), %>
23.2

$$$$
>  <compound>
Cc1ccc(N2C(=O)CSC2c2ccccc2)cc1 (stereo not given)

>  <growth inhibition (GI), %>
61.6

$$$$
>  <compound>
Cc1ccc(C2SCC(=O)N2c2ccccc2)cc1 (stereo not given)

>  <growth inhibition (GI), %>
2

$$$$

Data origin: ChEMBL document CHEMBL3779788
